system: HDAC6 human recombinant enzyme (Homo sapiens (Human))
Sequence (Q9UBN7 whole entry): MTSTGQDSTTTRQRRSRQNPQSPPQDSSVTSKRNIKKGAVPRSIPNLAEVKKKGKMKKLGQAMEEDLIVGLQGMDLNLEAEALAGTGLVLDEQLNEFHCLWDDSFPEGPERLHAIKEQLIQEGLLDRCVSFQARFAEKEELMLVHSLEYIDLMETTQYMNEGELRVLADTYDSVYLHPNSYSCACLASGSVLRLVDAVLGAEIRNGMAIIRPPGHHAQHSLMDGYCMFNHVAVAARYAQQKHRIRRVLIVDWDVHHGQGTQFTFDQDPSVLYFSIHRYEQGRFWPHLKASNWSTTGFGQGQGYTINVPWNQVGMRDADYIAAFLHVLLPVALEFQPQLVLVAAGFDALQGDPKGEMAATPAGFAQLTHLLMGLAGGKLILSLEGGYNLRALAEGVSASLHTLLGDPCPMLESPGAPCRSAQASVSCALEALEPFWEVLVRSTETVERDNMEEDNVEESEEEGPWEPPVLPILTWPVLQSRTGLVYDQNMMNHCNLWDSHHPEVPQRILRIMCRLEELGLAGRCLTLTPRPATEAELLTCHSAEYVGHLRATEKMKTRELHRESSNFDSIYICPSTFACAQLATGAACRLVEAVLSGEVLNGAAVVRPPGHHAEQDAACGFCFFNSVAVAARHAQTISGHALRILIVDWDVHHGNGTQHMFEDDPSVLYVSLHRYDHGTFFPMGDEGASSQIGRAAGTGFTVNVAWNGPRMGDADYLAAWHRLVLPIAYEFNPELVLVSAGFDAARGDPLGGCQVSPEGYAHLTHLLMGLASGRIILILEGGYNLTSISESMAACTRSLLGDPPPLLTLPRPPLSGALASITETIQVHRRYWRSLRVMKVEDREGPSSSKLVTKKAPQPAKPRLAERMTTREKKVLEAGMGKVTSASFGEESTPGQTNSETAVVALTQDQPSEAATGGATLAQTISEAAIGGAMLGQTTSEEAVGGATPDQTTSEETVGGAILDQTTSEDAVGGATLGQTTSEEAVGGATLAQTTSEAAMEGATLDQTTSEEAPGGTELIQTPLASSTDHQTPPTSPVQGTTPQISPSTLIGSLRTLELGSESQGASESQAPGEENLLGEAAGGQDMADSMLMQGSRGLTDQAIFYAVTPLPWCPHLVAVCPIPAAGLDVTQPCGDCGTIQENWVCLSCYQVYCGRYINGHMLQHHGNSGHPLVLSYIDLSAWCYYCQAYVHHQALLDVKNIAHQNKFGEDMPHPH
measurement.notes: Histone Deacetylase Assay (BPS Biosciences), HDAC6
Structures can show the parent of a compound that is named as a salt.
measure.name: IC50

Observe how each entry below is paired with its result.
Query IC50 for Nc1ccccc1NC(=O)c1cnc(NCCN2CCC(CNC3CC3c3ccc(F)cc3)CC2)nc1 (stereo not shown) [Example 150, TFA Salt]
> 10000 nM

Query IC50 for Nc1ccccc1NC(=O)c1cc2c(s1)CCN(C(=O)CNC1CC1c1ccc(F)cc1)C2 (stereo not shown) [Example 151, TFA Salt]
> 10000 nM

Query IC50 for Cc1noc(C)c1-c1ccc(C2CC2NCC2CCN(CCCc3ccc(C(=O)NO)cc3)CC2)cc1.O=C(O)C(F)(F)F (stereo not shown) [Example 64, TFA Salt]
58 nM

Others:
Query IC50 for Nc1ccccc1NC(=O)c1ccc(CNC(=O)N2CCC(CNC3CC3c3ccc(F)cc3)CC2)cc1 (stereo not shown) [Example 158, TFA Salt]
> 10000 nM

Query IC50 for O=C(NO)c1ccc(OCCN2CCC(CNC3CC3c3ccccc3)CC2)cc1 (stereo not shown) [Example 99, TFA Salt]
51 nM

Query IC50 for O=C(NO)c1ccc(CC(=O)N2CCC(CN[C@H]3C[C@@H]3c3ccccc3)CC2)cc1 [Example 84B, TFA Salt]
25 nM

Query IC50 for O=C(NO)c1ccc(S(=O)(=O)NCCN2CCC(CNC3CC3c3ccc(F)cc3)CC2)cc1 (stereo not shown) [Example 87, TFA Salt]
1060 nM

----------
Test system: MV-4-11
measurement.notes: cells
run.conditions: Homo sapiens, MV4-11, 144 h, read-out: Anticancer profileration EC50 MV-4-11
pEC50: −log10 of the molar value. Where a name gives a salt, the structure may show the parent alone.
Please use True whenever pEC50 is not below 8, and False whenever it is.

pEC50 >= 8 for O=C(NO)c1ccc(CCCN2CCn3cc(CNC4CC4c4ccc(F)cc4)nc3C2)cc1 (stereo not shown) [Example 72, TFA Salt] ?
False

pEC50 >= 8 for COc1ccc(C2CC2NCc2cn3c(n2)CN(CCCc2ccc(C(=O)NO)cc2)CC3)cc1 (stereo not shown) [Example 71, TFA Salt] ?
False

pEC50 >= 8 for COc1ccc(C2CC2NCC2CCN(CCCc3ccc(C(=O)NO)cc3)CC2)cc1 (stereo not shown) [Example 51, TFA Salt] ?
False

pEC50 >= 8 for O=C(/C=C/c1ccc(CNC2CC2c2ccc(-c3ccc(Cl)cc3)cc2)cc1)NO (stereo not shown) [Example 5, TFA Salt] ?
False

pEC50 >= 8 for O=C(NO)c1ccc(CCCN2CCC(CNC3CC3c3ccc(F)cc3)CC2)cc1 (stereo not shown) [Example 47, TFA Salt] ?
True

pEC50 >= 8 for O=C(NO)c1ccc(CCCN2CCC(CNC3CC3c3ccccc3)CC2)cc1 (stereo not shown) [Example 43, TFA Salt] ?
True

pEC50 >= 8 for O=C(NO)c1ccc(CCCN2CCC(CNC3CC3c3ccc(OCc4ccc(F)cc4)cc3)CC2)cc1 (stereo not shown) [Example 52, TFA Salt] ?
True

Others:
pEC50 >= 8 for O=C(NO)c1cnc(N2CCC(CNC3CC3c3ccc(F)cc3)CC2)nc1 (stereo not shown) [Example 8, TFA Salt] ?
False

----------
system: LSD1 (Homo sapiens (Human))
measurement.notes: TR-FRET Assay for LSD1
run.conditions: read-out: LSD1 IC50
Counter-ions that a name gives are not always drawn.
measure.name: IC50 (µM)
# unit: µM | format: bare number

Fill in IC50 for O=C(/C=C/c1ccc(CNC2CC2c2ccc(-c3ccc(Cl)cc3)cc2)cc1)NO (centres unmarked) [Example 5, TFA Salt] tested with LSD1 (Homo sapiens (Human)).
0.049

Others:
Fill in IC50 for O=C(NO)c1ccc(CCCN2CC3(CC(NC4CC4c4ccccc4)C3)C2)cc1 (centres unmarked) [Example 46, TFA Salt] tested with LSD1 (Homo sapiens (Human)).
0.026

Fill in IC50 for O=C(NO)c1ccc(CCCN2CCn3cc(CNC4CC4c4ccc(F)cc4)nc3C2)cc1 (centres unmarked) [Example 72, TFA Salt] tested with LSD1 (Homo sapiens (Human)).
0.73

Fill in IC50 for O=C(NO)c1ccc(CNC2CC2c2ccccc2)cc1 (centres unmarked) [Example 28, TFA Salt] tested with LSD1 (Homo sapiens (Human)).
0.023

Fill in IC50 for Nc1ccccc1NC(=O)c1ccc(CCCn2cc(CNC3CC3c3ccccc3)cn2)cc1 (centres unmarked) [Example 138, TFA Salt] tested with LSD1 (Homo sapiens (Human)).
0.099

Fill in IC50 for Nc1ccccc1NC(=O)c1ccc(OCCN2CCC(CNC3CC3c3ccc(F)cc3)CC2)nc1 (centres unmarked) [Example 149, TFA Salt] tested with LSD1 (Homo sapiens (Human)).
0.021

Fill in IC50 for O=C(NO)c1ccc(CN2CCC(CNC3CC3c3ccc(-c4cncnc4)cc3)CC2)cc1 (centres unmarked) [Example 38, TFA Salt] tested with LSD1 (Homo sapiens (Human)).
0.053

Fill in IC50 for O=C(NO)c1ccc(CCCN2CC(CNC3CC3c3ccc(F)cc3)C2)cc1 (centres unmarked) [Example 48, TFA Salt] tested with LSD1 (Homo sapiens (Human)).
0.029
